STUDY SYSTEM: furin, P09958;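 note: purified furin at 1:10 enzyme:substrate in 50 mM HEPES pH 7.5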
Sequence (P09958 whole entry): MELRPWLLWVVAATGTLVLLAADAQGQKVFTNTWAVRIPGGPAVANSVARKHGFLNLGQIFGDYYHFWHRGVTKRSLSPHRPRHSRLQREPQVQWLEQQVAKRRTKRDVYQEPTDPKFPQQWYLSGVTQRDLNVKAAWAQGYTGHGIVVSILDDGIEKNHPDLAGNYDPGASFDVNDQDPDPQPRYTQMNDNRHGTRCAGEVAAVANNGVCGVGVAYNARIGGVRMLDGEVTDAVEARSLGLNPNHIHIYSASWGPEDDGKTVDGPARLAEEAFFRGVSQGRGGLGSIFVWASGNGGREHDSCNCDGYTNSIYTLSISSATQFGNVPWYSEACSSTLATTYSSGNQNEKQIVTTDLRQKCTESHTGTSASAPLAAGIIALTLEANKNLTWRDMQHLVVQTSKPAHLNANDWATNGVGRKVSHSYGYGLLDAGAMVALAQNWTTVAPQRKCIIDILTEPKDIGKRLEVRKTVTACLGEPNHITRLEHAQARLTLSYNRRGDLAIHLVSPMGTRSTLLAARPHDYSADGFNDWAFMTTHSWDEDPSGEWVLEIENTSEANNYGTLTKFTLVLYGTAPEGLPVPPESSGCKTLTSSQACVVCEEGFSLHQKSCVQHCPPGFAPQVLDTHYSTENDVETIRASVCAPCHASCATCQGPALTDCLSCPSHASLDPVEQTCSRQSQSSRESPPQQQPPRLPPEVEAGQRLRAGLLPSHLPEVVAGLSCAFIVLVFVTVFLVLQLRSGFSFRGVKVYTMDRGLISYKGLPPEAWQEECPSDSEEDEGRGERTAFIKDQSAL
TEST DESCRIPTION: furin cleavage Z-score vs untreated control; higher = more cleavage, active = 3.5 or more, inactive = 1 or less, 8 variable residues between constant flanks
CONDITION DETAILS: 15 min
The other results are listed elsewhere or left out. How many sequences the whole screen found active is unknown.
OUTCOME MEASURE: furin cleavage Z-score

>>> print(df.to_string())
                   item_sequence         outcome_measure            measured
 0   CANRCRMLRSAGNASASA [FS-469]  furin cleavage Z-score       3.91 (active)
 1  CAKVLRSRRSAGNASASA [FS-1353]  furin cleavage Z-score       4.72 (active)
 2  CAKIARHYRWAGNASASA [FS-1634]  furin cleavage Z-score    0.374 (inactive)
 3   CAQHLPYIEQAGNASASA [HC1017]  furin cleavage Z-score   -0.486 (inactive)
 4   CAGERRKRRSAGNASASA [FS-425]  furin cleavage Z-score       13.6 (active)
 5   CAHPRRSRRSAGNASASA [FS-932]  furin cleavage Z-score       9.38 (active)
 6   CAWKKPDYEPAGNASASA [HC1311]  furin cleavage Z-score  -0.0771 (inactive)
 7  CASRCRFLRSAGNASASA [FS-1086]  furin cleavage Z-score       4.36 (active)
 8    CAIPFYGKAIAGNASASA [HC847]  furin cleavage Z-score    -1.38 (inactive)
 9  CASPRDARRSAGNASASA [FS-1614]  furin cleavage Z-score    -1.24 (inactive)
10   CAASRGNHVSAGNASASA [HC1122]  furin cleavage Z-score    0.577 (inactive)
11  CAAGKRKRRSAGNASASA [FS-1299]  furin cleavage Z-score       14.7 (active)
12  CAREKKSNSPAGNASASA [FS-2006]  furin cleavage Z-score   -0.595 (inactive)
13   CAAGKRVYYLAGNASASA [HC1559]  furin cleavage Z-score    0.829 (inactive)
14   CASPPCSAHLAGNASASA [HC2499]  furin cleavage Z-score   -0.446 (inactive)
15   CALIDRFKRWAGNASASA [FS-270]  furin cleavage Z-score       9.49 (active)
16    CAKWEYVVLLAGNASASA [HC518]  furin cleavage Z-score    -1.74 (inactive)
17  CAEPPEAKRGAGNASASA [FS-1117]  furin cleavage Z-score    -1.82 (inactive)
18   CAKVKREKRGAGNASASA [FS-454]  furin cleavage Z-score       10.5 (active)
19   CAQHYRKKRWAGNASASA [FS-370]  furin cleavage Z-score       8.78 (active)
20   CAWNKRKKRQAGNASASA [FS-968]  furin cleavage Z-score       14.4 (active)
21    CALINTNGSWAGNASASA [HC367]  furin cleavage Z-score    -2.18 (inactive)
22    CALYGNEGCGAGNASASA [HC203]  furin cleavage Z-score                1.22
23  CARFARMIEQAGNASASA [FS-2257]  furin cleavage Z-score                3.39
24  CAEMKRKKRVAGNASASA [FS-1521]  furin cleavage Z-score       7.44 (active)
25  CAREARVVSDAGNASASA [FS-2908]  furin cleavage Z-score    -0.98 (inactive)
26      CAHSRRSRRSAGNASASA [DV5]  furin cleavage Z-score       12.3 (active)
27  CAKVKREAEKAGNASASA [FS-1674]  furin cleavage Z-score       4.39 (active)
28  CARAPRSSSQAGNASASA [FS-3147]  furin cleavage Z-score                1.52
29  CAREKRAKIKAGNASASA [FS-2207]  furin cleavage Z-score   0.0659 (inactive)
